Just for reference, paper PMC6749236 is where these values come from.

Test system: P388 murine leukemia
TEST: In vivo anti-tumor activity, i.p. implanted leukemia
Design: species or system BDF1 hybrid male mice
CONDITION_SET: 18 mg/kg/day i.p., days 1, 5, 9; P388
Each entry gets not met if its MST ± SD stays under 20 days, and met if its MST ± SD is 20 days or above.

> print(dat)
                                   compound  qualitative.label
1  CN(C)CCNC(=O)N1CCCC1c1c(O)c2ccccc2oc1=O.O=C(O)C(F)(F)F (centres unmarked)            not met
2  Cc1cc(O)c(C2CCCN2C(=O)NCCN(C)C)c(=O)o1.O=C(O)C(F)(F)F (centres unmarked)            not met
3  O=C(Nc1ccccc1)N1CCCC1c1cc2c(cc1O)OCO2 (centres unmarked)                met
4  CN(C)CCNC(=O)N1CCCC1c1cc2c(cc1O)OCO2.O=C(O)C(F)(F)F (centres unmarked)                met

Switching to the query record.
Req: Check if MST ± SD >= 20 days (inclusive). Item: CN(C)CCNC(=O)N1CCCC1c1ccc(Nc2c([N+](=O)[O-])c(Cl)cc3c2no[n+]3[O-])cc1O.O=C(O)C(F)(F)F (centres unmarked)
Resp: not met

###

Catalogue of compounds with associated Genotoxicity (induction factor, I)
Tested on: Escherichia coli MG1655 (pRecA-lux)
TEST: Genotoxicity, bacterial lux-biosensor
Format: cell-based
CONDITION_SET: with metabolic activation (+S9); 10^−7 M
Description: E. coli MG1655 (pRecA-lux) was used for the evaluation of the genotoxicity of the synthesized compounds. The biosensor with the PrecA promotor fixes the presence of the factors causing damage of DNA in a cell. […] The induction factor (I) was defined as the relation of luminescence intensity of a lux-biosensor suspension containing tested sample (Lc) to the luminescence intensity of a lux-biosensor control suspension (Lk): I = Lc/Lk. […]
# output: bare number, no unit

> print(dat)
                                   compound  test.value
1  O=C(Nc1ccc(F)cc1)N1CCCC1c1ccc(Nc2c([N+](=O)[O-])c(Cl)cc3c2no[n+]3[O-])cc1O (centres unmarked)        1.45
2  O=C(Nc1ccccc1)N1CCCC1c1ccc(Nc2c([N+](=O)[O-])c(Cl)cc3c2no[n+]3[O-])cc1O (centres unmarked)        1.30
3  COc1ccc(NC(=O)N2CCCC2c2ccc(Nc3c([N+](=O)[O-])c(Cl)cc4c3no[n+]4[O-])cc2O)cc1 (centres unmarked)        1.49
4  O=C(Nc1ccc(Br)cc1)N1CCCC1c1ccc(Nc2c([N+](=O)[O-])c(Cl)cc3c2no[n+]3[O-])cc1O (centres unmarked)        0.71

Now, please, on to the next compound.
Req: Would you kindly share the measured Genotoxicity (induction factor, I) for "O=[N+]([O-])c1c(Cl)cc2c(no[n+]2[O-])c1Nc1cccc(O)c1" ?
Resp: 1.18

###

Tested on: Escherichia coli MG1655 (pRecA-lux)
TEST: Genotoxicity, bacterial lux-biosensor
Format: cell-based
CONDITION_SET: with metabolic activation (+S9); 10^−6 M
MEASUREMENT_NAME: Genotoxicity (induction factor, I)
# output: bare number, no unit

// below: answered molecules
> print(dat)
                                   molecule                    measurement.name  test.value
1  O=C(Nc1ccc(Br)cc1)N1CCCC1c1ccc(Nc2c([N+](=O)[O-])c(Cl)cc3c2no[n+]3[O-])cc1O (centres unmarked)  Genotoxicity (induction factor, I)        0.71
2  O=C(Nc1ccc(F)cc1)N1CCCC1c1ccc(Nc2c([N+](=O)[O-])c(Cl)cc3c2no[n+]3[O-])cc1O (centres unmarked)  Genotoxicity (induction factor, I)        1.47
3  COc1ccc(NC(=O)N2CCCC2c2ccc(Nc3c([N+](=O)[O-])c(Cl)cc4c3no[n+]4[O-])cc2O)cc1 (centres unmarked)  Genotoxicity (induction factor, I)        1.54
4  O=C(Nc1ccccc1)N1CCCC1c1ccc(Nc2c([N+](=O)[O-])c(Cl)cc3c2no[n+]3[O-])cc1O (centres unmarked)  Genotoxicity (induction factor, I)        1.36

Req: Would you kindly share the measured Genotoxicity (induction factor, I) for "O=[N+]([O-])c1c(Cl)cc2c(no[n+]2[O-])c1Nc1cccc(O)c1" ?
Resp: 1.28

###

Tested on: Escherichia coli MG1655 (pRecA-lux)
TEST: Genotoxicity, bacterial lux-biosensor
Assay type: cell-based
CONDITION_SET: with metabolic activation (+S9); 10^−9 M
MEASUREMENT_NAME: Genotoxicity (induction factor, I)
# output: bare number, no unit

Req: Would you kindly share the measured Genotoxicity (induction factor, I) for O=C(Nc1ccccc1)N1CCCC1c1ccc(Nc2c([N+](=O)[O-])c(Cl)cc3c2no[n+]3[O-])cc1O (centres unmarked) [6b] ?
Resp: 1.47

Req: Same question, O=C(Nc1ccc(Br)cc1)N1CCCC1c1ccc(Nc2c([N+](=O)[O-])c(Cl)cc3c2no[n+]3[O-])cc1O (centres unmarked) [6d] this time
Resp: 0.76

Req: Same question, COc1ccc(NC(=O)N2CCCC2c2ccc(Nc3c([N+](=O)[O-])c(Cl)cc4c3no[n+]4[O-])cc2O)cc1 (centres unmarked) [6c] this time
Resp: 1.30

Req: Same question, O=C(Nc1ccc(F)cc1)N1CCCC1c1ccc(Nc2c([N+](=O)[O-])c(Cl)cc3c2no[n+]3[O-])cc1O (centres unmarked) [6e] this time
Resp: 1.43

Req: Same question, O=[N+]([O-])c1c(Cl)cc2c(no[n+]2[O-])c1Nc1cccc(O)c1 [compound 4] this time
Resp: 1.19

###

Tested on: Escherichia coli MG1655 (pRecA-lux)
TEST: Genotoxicity, bacterial lux-biosensor
Assay type: cell-based
CONDITION_SET: without metabolic activation (-S9); 10^−5 M
Each entry gets 0 if its Genotoxicity (induction factor, I) stays under 2, and 1 if its Genotoxicity (induction factor, I) is 2 or above.

Use the examples below as a reference point.
> print(dat)
                                   molecule  qualitative.label
1  O=C(Nc1ccc(Br)cc1)N1CCCC1c1ccc(Nc2c([N+](=O)[O-])c(Cl)cc3c2no[n+]3[O-])cc1O (centres unmarked)                  0
2  O=C(Nc1ccccc1)N1CCCC1c1ccc(Nc2c([N+](=O)[O-])c(Cl)cc3c2no[n+]3[O-])cc1O (centres unmarked)                  0
3  O=[N+]([O-])c1c(Cl)cc2c(no[n+]2[O-])c1Nc1cccc(O)c1                  0

Req: Check if Genotoxicity (induction factor, I) >= 2 (inclusive). Item: COc1ccc(NC(=O)N2CCCC2c2ccc(Nc3c([N+](=O)[O-])c(Cl)cc4c3no[n+]4[O-])cc2O)cc1 (centres unmarked)
Resp: 1

###

System: Acinetobacter calcoaceticus VKPM B-10353
TEST: Biofilm formation, crystal violet assay
Format: cell-based
CONDITION_SET: A. calcoaceticus VKPM B-10353; 1 × 10^−9 M; control = 100%
Procedure: Bacterial strains and cultivation conditions. For the detection of biofilms, formation strains Vibrio aquamarinus DSM 26054 and Acinetobacter calcoaceticus VKPM B-10353 were used. These strains form biofilms, making them useful for studying biofilms. […] Test system for evaluation of biofilms production. To quantify the formation of biofilms, the crystal violet assay was used, with some modifications. […] Each experiment was performed in triplicate. The values were expressed as mean + SD. […]
Marks after values point to notes of the source that are not given here.
MEASUREMENT_NAME: Biofilm Formation

// below: answered compounds
> print(dat)
                                   compound                             system.tested  test.value
1  O=C(Nc1ccc(F)cc1)N1CCCC1c1ccc(Nc2c([N+](=O)[O-])c(Cl)cc3c2no[n+]3[O-])cc1O (stereo not drawn) [6e]  Acinetobacter calcoaceticus VKPM B-10353   87.92 * %
2  O=[N+]([O-])c1c(Cl)cc2c(no[n+]2[O-])c1Nc1cccc(O)c1 [compound 4]  Acinetobacter calcoaceticus VKPM B-10353   86.67 * %

Req: Would you kindly share the measured Biofilm Formation for O=C(Nc1ccc(Br)cc1)N1CCCC1c1ccc(Nc2c([N+](=O)[O-])c(Cl)cc3c2no[n+]3[O-])cc1O (stereo not drawn) [6d] ?
Resp: 79.16 * %
